Numbers sourced from patent US20110135636A1.

Assignment: determine reported % inhibition for the given binders.
Target: T1, recombinant human EGFR extracellular domain with 6xHis (human, UniProt P00533 25-645)
T1 construct: In-house produced; also called 6xHis EGFR ECD; soluble human EGFR ECD; not shown: 6xHis tag
Experiment: SPR competition, competitor ICR10
Experimental: SPR analysis was performed on a Biacore 3000 machine containing four flow cells. A CM5 Biacore chip was conjugated with 10,000 Resonance units (Ru) polyclonal anti-His antibody to flow cells 1-4 according to the manufacturer's instructions. […] Immediately after antigen injection the maximal binding of the Anti-EGFR mAb without competition was established in each flow cell during a reference run. […]
Just the number in %, nothing appended.

Q: Give its % inhibition value. Item: antibody 1308 (antibody, human IgG1, kappa, V domains shown, Chimeric IgG1 kappa) VH: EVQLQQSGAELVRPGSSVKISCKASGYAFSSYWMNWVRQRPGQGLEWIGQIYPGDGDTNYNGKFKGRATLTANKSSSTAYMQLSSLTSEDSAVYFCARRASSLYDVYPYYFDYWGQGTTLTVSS VL: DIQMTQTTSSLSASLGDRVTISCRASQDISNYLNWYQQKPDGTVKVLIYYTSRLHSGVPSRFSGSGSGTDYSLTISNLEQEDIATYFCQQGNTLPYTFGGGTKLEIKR
A: 15

Q: Try antibody 1260 (antibody, human IgG1, kappa, V domains shown, Chimeric IgG1 kappa) VH: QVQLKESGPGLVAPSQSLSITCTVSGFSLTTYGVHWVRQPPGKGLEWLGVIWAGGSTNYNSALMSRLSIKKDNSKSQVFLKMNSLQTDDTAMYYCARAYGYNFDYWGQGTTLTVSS VL: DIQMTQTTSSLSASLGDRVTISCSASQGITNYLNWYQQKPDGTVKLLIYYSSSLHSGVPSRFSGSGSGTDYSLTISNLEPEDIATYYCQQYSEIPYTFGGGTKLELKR next.
A: 91

Q: Try antibody 1030 (antibody, human IgG1, kappa, V domains shown, Chimeric IgG1 kappa) VH: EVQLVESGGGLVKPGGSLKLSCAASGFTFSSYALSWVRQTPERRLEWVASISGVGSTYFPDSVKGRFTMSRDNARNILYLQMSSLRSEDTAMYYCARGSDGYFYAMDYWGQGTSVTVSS VL: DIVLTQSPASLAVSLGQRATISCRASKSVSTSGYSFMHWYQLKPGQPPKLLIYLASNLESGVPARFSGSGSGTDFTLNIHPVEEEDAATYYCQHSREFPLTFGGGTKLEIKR next.
A: 54

Q: Try antibody 1320 (antibody, human IgG1, kappa, V domains shown, Chimeric IgG1 kappa) VH: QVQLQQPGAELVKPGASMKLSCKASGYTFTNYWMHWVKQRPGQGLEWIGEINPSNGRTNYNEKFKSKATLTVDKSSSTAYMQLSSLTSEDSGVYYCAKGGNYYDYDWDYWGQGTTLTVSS VL: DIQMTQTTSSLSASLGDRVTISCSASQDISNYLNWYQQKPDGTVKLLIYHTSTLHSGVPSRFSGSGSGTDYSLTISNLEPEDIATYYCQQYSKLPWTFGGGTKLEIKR next.
A: -3

Q: Try antibody 1257 (antibody, human IgG1, kappa, V domains shown, Chimeric IgG1 kappa) VH: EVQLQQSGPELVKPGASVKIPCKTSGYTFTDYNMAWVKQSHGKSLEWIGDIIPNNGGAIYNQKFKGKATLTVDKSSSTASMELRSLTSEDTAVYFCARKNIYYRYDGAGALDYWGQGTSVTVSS VL: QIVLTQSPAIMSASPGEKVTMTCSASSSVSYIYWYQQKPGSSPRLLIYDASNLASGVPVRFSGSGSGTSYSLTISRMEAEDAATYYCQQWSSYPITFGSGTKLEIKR next.
A: 22

Q: Try antibody 1208 (antibody, human IgG1, kappa, V domains shown, Chimeric IgG1 kappa; also called clone 1208) VH: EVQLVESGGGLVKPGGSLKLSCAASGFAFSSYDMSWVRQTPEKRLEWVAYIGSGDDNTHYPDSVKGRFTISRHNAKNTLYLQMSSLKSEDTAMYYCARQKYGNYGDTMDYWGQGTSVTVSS VL: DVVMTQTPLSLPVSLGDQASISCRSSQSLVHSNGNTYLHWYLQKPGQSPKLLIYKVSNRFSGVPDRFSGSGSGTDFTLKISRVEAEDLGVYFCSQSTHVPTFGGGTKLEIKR next.
A: 5

Q: Try antibody 1024 (antibody, human IgG1, kappa, V domains shown, Chimeric IgG1 kappa) VH: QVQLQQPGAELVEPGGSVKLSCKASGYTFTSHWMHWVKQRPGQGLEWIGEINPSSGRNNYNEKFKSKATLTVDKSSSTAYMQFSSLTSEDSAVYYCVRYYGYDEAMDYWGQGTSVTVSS VL: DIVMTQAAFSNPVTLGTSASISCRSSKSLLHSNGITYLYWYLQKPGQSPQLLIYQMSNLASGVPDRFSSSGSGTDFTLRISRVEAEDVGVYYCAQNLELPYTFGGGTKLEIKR next.
A: -3

Q: Try antibody 1284 (antibody, human IgG1, kappa, V domains shown, Chimeric IgG1 kappa) VH: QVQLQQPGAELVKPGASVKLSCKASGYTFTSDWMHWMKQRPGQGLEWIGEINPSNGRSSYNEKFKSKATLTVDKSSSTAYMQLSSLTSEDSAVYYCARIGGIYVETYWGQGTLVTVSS VL: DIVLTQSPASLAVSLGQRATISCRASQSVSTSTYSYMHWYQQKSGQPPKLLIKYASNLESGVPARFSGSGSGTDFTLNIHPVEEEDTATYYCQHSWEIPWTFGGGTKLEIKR next.
A: 86

Q: Try antibody 1344 (antibody, human IgG1, kappa, V domains shown, Chimeric IgG1 kappa) VH: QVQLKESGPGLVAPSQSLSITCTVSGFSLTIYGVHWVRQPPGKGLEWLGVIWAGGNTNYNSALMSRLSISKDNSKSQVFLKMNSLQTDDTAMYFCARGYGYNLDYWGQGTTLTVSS VL: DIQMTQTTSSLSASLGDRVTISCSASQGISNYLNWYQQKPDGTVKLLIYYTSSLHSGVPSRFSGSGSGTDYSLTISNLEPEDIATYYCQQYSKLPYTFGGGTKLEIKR next.
A: 87

Q: Try antibody 1261 (antibody, human IgG1, kappa, V domains shown, Chimeric IgG1 kappa) VH: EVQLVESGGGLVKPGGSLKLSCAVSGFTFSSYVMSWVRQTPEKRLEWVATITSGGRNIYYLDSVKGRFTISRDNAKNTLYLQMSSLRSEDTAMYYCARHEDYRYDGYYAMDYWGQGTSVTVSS VL: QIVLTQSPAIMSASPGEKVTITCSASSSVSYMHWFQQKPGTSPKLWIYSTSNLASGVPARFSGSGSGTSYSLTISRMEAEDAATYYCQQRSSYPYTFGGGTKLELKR next.
A: 24

Q: Try antibody 1347 (antibody, human IgG1, kappa, V domains shown, Chimeric IgG1 kappa) VH: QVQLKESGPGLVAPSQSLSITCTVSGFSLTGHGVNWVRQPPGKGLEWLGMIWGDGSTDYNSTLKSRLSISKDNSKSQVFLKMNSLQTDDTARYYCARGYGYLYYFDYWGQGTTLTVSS VL: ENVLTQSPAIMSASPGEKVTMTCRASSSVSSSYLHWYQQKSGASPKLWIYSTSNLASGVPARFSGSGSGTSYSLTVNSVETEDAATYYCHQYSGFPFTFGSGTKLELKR next.
A: 17
